system: Oxacillin-resistant Staphylococcus aureus (WHO-25); assay: MIC by agar dilution, ORSA (WHO-25); assay type: cell-based; settings: Table 1; ORSA (WHO-25), 1 isolate

{"columns": ["sampleSmiles", "MIC"],
 "data": [
  ["O=C(c1ccccc1C(F)(F)F)c1[nH]c(Cl)c(Cl)c1-n1c(C(=O)c2ccccc2C(F)(F)F)cc(Cl)c1Cl", ">128 µg/mL"],
  ["COc1cc(OC)c(C(=O)c2[nH]c(Cl)c(Cl)c2-n2c(C(=O)c3cc(Cl)c(OC)cc3OC)cc(Cl)c2Cl)cc1Cl", ">64 µg/mL"],
  ["COc1ccc(C(=O)c2[nH]c(Cl)c(Cl)c2-n2c(C(=O)c3ccc(OC)cc3)cc(Cl)c2Cl)cc1", ">128 µg/mL"]
]}

# credit: patent US9700044B2
